# tested_system: P-selectin (Homo sapiens, UniProt P16109)
# Construct: P-selectin is isolated from human platelet lysates; from tissue; host or cells: human platelets (outdated platelet packs from a blood bank)
# Sequence (P16109 42-830): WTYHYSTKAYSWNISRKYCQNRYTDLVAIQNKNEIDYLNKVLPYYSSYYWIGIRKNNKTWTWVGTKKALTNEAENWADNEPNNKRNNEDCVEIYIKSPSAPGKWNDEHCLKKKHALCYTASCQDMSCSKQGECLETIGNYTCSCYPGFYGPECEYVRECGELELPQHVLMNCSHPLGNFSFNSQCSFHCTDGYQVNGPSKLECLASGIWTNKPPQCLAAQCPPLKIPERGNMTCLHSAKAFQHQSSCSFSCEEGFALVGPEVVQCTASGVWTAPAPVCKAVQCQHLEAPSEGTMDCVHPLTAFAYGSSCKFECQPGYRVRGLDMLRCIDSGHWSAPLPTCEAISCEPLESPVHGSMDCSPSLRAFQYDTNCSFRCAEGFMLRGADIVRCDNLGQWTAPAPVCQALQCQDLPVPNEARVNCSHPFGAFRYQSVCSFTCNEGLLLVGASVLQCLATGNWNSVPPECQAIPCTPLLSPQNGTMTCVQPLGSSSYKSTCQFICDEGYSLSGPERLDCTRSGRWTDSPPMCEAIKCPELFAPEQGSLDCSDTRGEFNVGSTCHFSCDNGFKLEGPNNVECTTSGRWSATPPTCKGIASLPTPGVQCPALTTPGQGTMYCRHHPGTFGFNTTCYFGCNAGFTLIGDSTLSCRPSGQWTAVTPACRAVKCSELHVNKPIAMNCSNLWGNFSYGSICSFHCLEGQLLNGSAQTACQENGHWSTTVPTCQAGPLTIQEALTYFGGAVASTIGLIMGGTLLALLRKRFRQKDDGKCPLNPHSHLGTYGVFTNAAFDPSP
# assay_summary: Inhibition of human neutrophil adhesion to purified P-selectin immobilized on plastic wells
# Type: cell-based
# condition: inhibiting the binding of human neutrophils to P-selectin
Where a SMILES comes first, the peptide text is derived from it. Bridges are numbered along the chain shown (N, C = ends). [ ]: non-standard residue; d: D form.
observed_property: pIC50
In textbook form, pIC50 equals minus log to base ten of the concentration in mol/L.

{"compound": "CC(C)[C@@H](NC(=O)[C@@H](Cc1c[nH]c2ccccc12)NC(=O)[C@H](NC(=O)[C@@H](Cc1c[nH]c2ccccc12)NC(=O)[C@H]1CSSC[C@@H](NC(=O)[C@@H](CCCCN)NC(=O)[C@H](N)CCCNC(=N)N)C(=O)NCC(=O)N[C@@H](C)C(=O)N1)[C@H](C)O)C(N)=O [(38)] (H-[dR][dK][dC]GA[dC][dW][dT][dW][dV]-NH2; disulfide 3-6)", "tested_system": "P-selectin (Homo sapiens, UniProt P16109)", "pIC50": 4.12}

Give pIC50 for the following compound: CC[C@@H](C)[C@@H](NC(=O)[C@@H](CCCCN)NC(=O)[C@H](N)CCCNC(=N)N)C(=O)NCC(=O)N[C@@H]1CSSC[C@H](C(=O)N[C@@H](C(=O)N[C@@H](C(N)=O)C(C)C)[C@H](C)O)NC(=O)[C@@H](Cc2c[nH]c3ccccc23)NC(=O)[C@@H]([C@H](C)CC)NC1=O [(32)] (H-[dR][dK][dI]G[dC][dI][dW][dC][dT][dV]-NH2; disulfide 5-8)
4.64
